The origin of these recorded values is patent US7842469B2.

Assay: Bioluminescence emission spectra
Type: physicochemical
Settings: emission spectrum with native coelenterazine
endpoint_name: Wavelength (nm) peak
Respond with the bare value in nm.

Query: Using the record for A55T/C124A: RLuc mutant A55T/C124A (protein) MASKVYDPEQRKRMITGPQWWARCKQMNVLDSFINYYDSEKHAENAVIFLHGNATSSYLWRHVVPHIEPVARCIIPDLIGMGKSGKSGNGSYRLLDHYKYLTAWFELLNLPKKIIFVGHDWGAALAFHYSYEHQDKIKAIVHAESVVDVIESWDEWPDIEEDIALIKSEEGEKMVLENNFFVETMLPSKIMRKLEPEEFAAYLEPFKEKGEVRRPTLSWPREIPLVKGGKPDVVQIVRNYNAYLRASDDLPKMFIESDPGFFSNAIVEGAKKFPNTEFVKVKGLHFSQEDAPDEMGKYIKSFVERVLKNEQ , report its Wavelength (nm) peak.
Reply: 486

Query: Try C124A/M191L: RLuc mutant C124A/M191L (protein) MASKVYDPEQRKRMITGPQWWARCKQMNVLDSFINYYDSEKHAENAVIFLHGNAASSYLWRHVVPHIEPVARCIIPDLIGMGKSGKSGNGSYRLLDHYKYLTAWFELLNLPKKIIFVGHDWGAALAFHYSYEHQDKIKAIVHAESVVDVIESWDEWPDIEEDIALIKSEEGEKMVLENNFFVETMLPSKILRKLEPEEFAAYLEPFKEKGEVRRPTLSWPREIPLVKGGKPDVVQIVRNYNAYLRASDDLPKMFIESDPGFFSNAIVEGAKKFPNTEFVKVKGLHFSQEDAPDEMGKYIKSFVERVLKNEQ next.
Reply: 480
